Sourced from ChEMBL document CHEMBL5143562

Target: Alpha-synuclein (Homo sapiens)
Test: Inhibition of alpha-Synuclein (unknown origin) aggregation assessed as time difference in midpoint of aggregation at compound to protein molar ratio of 1:1 incubated for 36 hrs under shaking condition and measured every 6 hrs by Thioflavin T based fluorescence assay relative to control
ASSAY READOUT: TIME (h)
Reply numerically in h, unit not repeated.

>  <STRUCTURE NOTATION>
O=C1C=C(c2cc(Br)c(O)c(Br)c2)[C@]2(O1)O[C@]1(OC(=O)C=C1c1cc(Br)c(O)c(Br)c1)C(c1cc(Br)c(O)c(Br)c1)=C2c1cc(Br)c(O)c(Br)c1

>  <OBSERVED RESULT>
10

$$$$

Now look at this entry.
# TIME of O=C1C=C(c2cc(Br)c(O)c(Br)c2)[C@]2(O1)O[C@]1(OC(=O)C=C1c1cc(Br)c(O)c(Br)c1)C(c1ccc(O)c(Br)c1)=C2c1ccc(O)c(Br)c1 = 9.4

====

Biological target: UniProtKB P37840
Assay: Inhibition of alpha-Synuclein (unknown origin) aggregation assessed as times difference in midpoint of aggregation at compound to protein molar ratio of 5:1 incubated for 36 hrs under shaking condition and measured every 6 hrs by Thioflavin T based fluorescence assay relative to control
ASSAY READOUT: TIME (h)
Express the result in h but write the number alone.

>  <STRUCTURE NOTATION>
O=C1C=C(c2cc(Br)c(O)c(Br)c2)[C@]2(O1)O[C@]1(OC(=O)C=C1c1cc(Br)c(O)c(Br)c1)C(c1cc(Br)c(O)c(Br)c1)=C2c1cc(Br)c(O)c(Br)c1

>  <OBSERVED RESULT>
13.7

$$$$
>  <STRUCTURE NOTATION>
O=C(O[C@@H]1Cc2c(O)cc(O)cc2O[C@@H]1c1cc(O)c(O)c(O)c1)c1cc(O)c(O)c(O)c1

>  <OBSERVED RESULT>
11.1

$$$$
>  <STRUCTURE NOTATION>
O=C1C=C(c2ccc(O)cc2)[C@]2(O1)O[C@]1(OC(=O)C=C1c1ccc(O)c(Br)c1)C(c1ccc(O)cc1)=C2c1ccc(O)cc1

>  <OBSERVED RESULT>
4

$$$$

Now for another entry.
Short answer on UniProtKB P37840 for O=C1C=C(c2ccc(O)cc2)[C@]2(O1)O[C@]1(OC(=O)C=C1c1ccc(O)cc1)C(c1ccc(O)cc1)=C2c1ccc(O)cc1 , TIME: 14.5

====

Target: Alpha-synuclein (Homo sapiens)
Experiment: Inhibition of alpha-Synuclein (unknown origin) aggregation assessed as times difference in midpoint of aggregation at compound to protein molar ratio of 5:1 incubated for 36 hrs under shaking condition and measured every 6 hrs by Thioflavin T based fluorescence assay relative to control
ASSAY READOUT: TIME (h)
Quick note: give the figure in h, leave out the unit.

>  <STRUCTURE NOTATION>
O=C1C=C(c2ccc(O)cc2)[C@]2(O1)O[C@]1(OC(=O)C=C1c1ccc(O)cc1)C(c1ccc(O)c(Br)c1)=C2c1ccc(O)cc1

>  <TARGET ENTITY>
Alpha-synuclein (Homo sapiens)

>  <TIME [h]>
4

$$$$

TIME recorded for this compound, O=C1C=C(c2ccc(O)cc2)[C@]2(O1)O[C@@]1(OC(=O)C=C1c1ccc(O)cc1)C(c1ccc(O)cc1)=C2c1ccc(O)cc1 , is 2.3

The compound listed as O=C1C=C(c2cc(Br)c(O)c(Br)c2)[C@]2(O1)O[C@]1(OC(=O)C=C1c1cc(Br)c(O)c(Br)c1)C(c1ccc(O)c(Br)c1)=C2c1ccc(O)c(Br)c1 has a reported TIME of 10

====

Reported inhibition values follow for various compounds
Target: Alpha-synuclein (Homo sapiens) (UniProt P37840)
Experiment: Inhibition of alpha-Synuclein (unknown origin) aggregation at compound to protein molar ratio of 5:1 incubated for 36 hrs under shaking condition and measured every 6 hrs by Thioflavin T based fluorescence assay relative to control
Settings: concentration not given here
Write it as a number; the unit % goes unstated.

>  <STRUCTURE NOTATION>
O=C(O[C@@H]1Cc2c(O)cc(O)cc2O[C@@H]1c1cc(O)c(O)c(O)c1)c1cc(O)c(O)c(O)c1

>  <OBSERVED RESULT>
98.9

$$$$
>  <STRUCTURE NOTATION>
O=C1C=C(c2ccc(O)cc2)[C@]2(O1)O[C@]1(OC(=O)C=C1c1ccc(O)cc1)C(c1ccc(O)c(Br)c1)=C2c1ccc(O)cc1

>  <OBSERVED RESULT>
92.9

$$$$
>  <STRUCTURE NOTATION>
O=C1C=C(c2ccc(O)cc2)[C@]2(O1)O[C@@]1(OC(=O)C=C1c1ccc(O)cc1)C(c1ccc(O)cc1)=C2c1ccc(O)cc1

>  <OBSERVED RESULT>
51.5

$$$$
>  <STRUCTURE NOTATION>
O=C1C=C(c2ccc(O)cc2)[C@]2(O1)O[C@]1(OC(=O)C=C1c1ccc(O)cc1)C(c1ccc(O)cc1)=C2c1ccc(O)cc1

>  <OBSERVED RESULT>
75.2

$$$$
>  <STRUCTURE NOTATION>
O=C1C=C(c2cc(Br)c(O)c(Br)c2)[C@]2(O1)O[C@]1(OC(=O)C=C1c1cc(Br)c(O)c(Br)c1)C(c1cc(Br)c(O)c(Br)c1)=C2c1cc(Br)c(O)c(Br)c1

>  <OBSERVED RESULT>
89

$$$$

Case O=C1C=C(c2ccc(O)cc2)[C@]2(O1)O[C@]1(OC(=O)C=C1c1ccc(O)c(Br)c1)C(c1ccc(O)cc1)=C2c1ccc(O)cc1 , Alpha-synuclein (Homo sapiens) (UniProt P37840), inhibition recorded as 97.6

// compound O=C1C=C(c2cc(Br)c(O)c(Br)c2)[C@]2(O1)O[C@]1(OC(=O)C=C1c1cc(Br)c(O)c(Br)c1)C(c1ccc(O)c(Br)c1)=C2c1ccc(O)c(Br)c1 , assay Alpha-synuclein (Homo sapiens) (UniProt P37840), inhibition value: 99.9

====

Test: Selectivity index, ratio of IC50 for cytotoxicity against human HEK293 cells to IC50 for antiplasmodial activity against Plasmodium falciparum 3D7
Format: toxicity, cell-based
Settings: read-out: Ratio IC50
ASSAY READOUT: selectivity ratio
Simply state the number, no unit and no words.

>  <STRUCTURE NOTATION>
O=C1C=C(c2ccc(O)cc2)[C@]2(O1)O[C@]1(OC(=O)C=C1c1ccc(O)cc1)C(c1ccc(O)cc1)=C2c1ccc(O)cc1

>  <OBSERVED RESULT>
7.6

$$$$

Now, please, on to the next molecule.
// selectivity ratio value for O=C(O)c1cc2c([nH]c3ccc(Br)cc32)c(C(=O)c2cn(S(=O)(=O)O)c3ccc(Br)cc23)n1 : 2.66

====

Molecular target: Alpha-synuclein (Homo sapiens) (UniProt P37840)
Test: Inhibition of alpha-Synuclein (unknown origin) aggregation at compound to protein molar ratio of 1:1 incubated for 36 hrs under shaking condition and measured every 6 hrs by Thioflavin T based fluorescence assay relative to control
Details: concentration not given here
Below: a set of entries, each annotated with reported inhibition.
Record the value in %, omitting the unit from your answer.

These recorded examples may help you get a feel for the data.
>  <STRUCTURE NOTATION>
O=C1C=C(c2ccc(O)cc2)[C@]2(O1)O[C@@]1(OC(=O)C=C1c1ccc(O)cc1)C(c1ccc(O)cc1)=C2c1ccc(O)cc1

>  <TARGET ENTITY>
Alpha-synuclein (Homo sapiens) (UniProt P37840)

>  <inhibition, %>
22.1

$$$$
>  <STRUCTURE NOTATION>
O=C1C=C(c2cc(Br)c(O)c(Br)c2)[C@]2(O1)O[C@]1(OC(=O)C=C1c1cc(Br)c(O)c(Br)c1)C(c1cc(Br)c(O)c(Br)c1)=C2c1cc(Br)c(O)c(Br)c1

>  <TARGET ENTITY>
Alpha-synuclein (Homo sapiens) (UniProt P37840)

>  <inhibition, %>
13.3

$$$$

Field: next molecule
For record O=C1C=C(c2ccc(O)cc2)[C@]2(O1)O[C@]1(OC(=O)C=C1c1ccc(O)cc1)C(c1ccc(O)cc1)=C2c1ccc(O)cc1 the listed inhibition is 60

====

Target: Alpha-synuclein (Homo sapiens) (UniProt P37840)
Assay: Inhibition of alpha-Synuclein (unknown origin) aggregation at compound to protein molar ratio of 1:1 incubated for 36 hrs under shaking condition and measured every 6 hrs by Thioflavin T based fluorescence assay relative to control
Settings: concentration not given here
Reported inhibition values are given for each entry in this list.
Entry rule: numbers only, all in %.

>  <STRUCTURE NOTATION>
O=C1C=C(c2ccc(O)cc2)[C@]2(O1)O[C@]1(OC(=O)C=C1c1ccc(O)c(Br)c1)C(c1ccc(O)cc1)=C2c1ccc(O)cc1

>  <RESULT UNIT>
%

>  <inhibition>
39

$$$$
>  <STRUCTURE NOTATION>
O=C1C=C(c2cc(Br)c(O)c(Br)c2)[C@]2(O1)O[C@]1(OC(=O)C=C1c1cc(Br)c(O)c(Br)c1)C(c1ccc(O)c(Br)c1)=C2c1ccc(O)c(Br)c1

>  <RESULT UNIT>
%

>  <inhibition>
34.3

$$$$

Let us examine a further case.
So for O=C1C=C(c2ccc(O)cc2)[C@]2(O1)O[C@]1(OC(=O)C=C1c1ccc(O)cc1)C(c1ccc(O)c(Br)c1)=C2c1ccc(O)cc1 , the logged inhibition turned out to be 24.9
